Each recorded value in this set is attributed to PubChem BioAssay (NCI).

Tested on: SNB-19 CNS
Assay: NCI tumour cell line growth inhibition, 48 h
Endpoint Label: TGI

>>> print(df.to_string())
                                    molecule  data_value
 0  COC(=O)C1=C2SCc3ccc(cc3)CSC3=C(C(=O)OC)SC(=C(S2)S1)S3    > 100 µM
 1  COc1ccc(/C=C2/N=C(N/N=C\C(O)C(O)C(O)C(O)CO)NC2=O)cc1 (stereo unspecified)    > 100 µM
 2  CC1CN1C1=CC(=O)c2c(c(CO)cn2C)C1=O (stereo unspecified)     3.74 µM
 3  COc1cccc(NC(=O)CC(=O)N2NC(c3ccccc3)C(N=Nc3cccc(C(=O)O)c3)C2=O)c1 (stereo unspecified)    > 100 µM
 4  O=C1OC2C(O)COC2(O)C1(O)Cc1c[nH]c2ccccc12 (stereo unspecified)    > 100 µM
 5             NNC1=N/C(=C\c2ccccc2O)C(=O)N1    > 100 µM
 6      CC(=O)N=C1C=C(NC(C)=O)C(=O)c2ccccc21      7.9 µM
 7  CCCNC(=O)C(C)(Cl)C(=O)c1ccccc1O (stereo unspecified)    > 100 µM
 8  CCC1=C(c2ccc(OC)cc2)CC[C@@]2(CCNC2=O)[C@@H]1C    > 100 µM
 9  CC(C)[Si]1(C(C)C)OCC2OC(N3C(=O)NC(=O)C[C@@H]3C(O)c3ccccc3)CC2O[Si](C(C)C)(C(C)C)O1 (stereo partly specified)     25.4 µM
10  Cc1cc(C)c2c(=O)n(CN3CCC(C#N)(c4ccccc4)CC3)sc2n1    > 100 µM

====

Overview of recorded TGI for various compounds
Test system: LOX IMVI melanoma
Experiment: NCI tumour cell line growth inhibition, 48 h
Endpoint Label: TGI

In [3]: df
Out[3]:
                                   compound        test_system  data_value
0             CC(C)(N=NC(C)(C)C(=N)N)C(=N)N  LOX IMVI melanoma    > 100 µM
1  O=C1c2ccccc2C(=O)c2c(N=Nc3[nH]c(=S)[nH]c3O)cccc21  LOX IMVI melanoma    > 100 µM
2  COC(=O)C12CCC(C(F)(F)C1=O)C2(C)C (centres undefined)  LOX IMVI melanoma    > 100 µM
3  CCCCCCNC(=O)Nc1ccc2cc3ccc(NC(=O)NCCCCCC)cc3nc2c1  LOX IMVI melanoma    0.737 µM
4  COC(=O)C1=C(O)[C@H](C(=O)OC)C2(O)[C@@H](C(=O)OC)[C@H]1C[C@@H](c1ccc(OC(=O)n3ccnc3)cc1)[C@@H]2C(=O)OC  LOX IMVI melanoma     > 50 µM
5  CC(=O)SSC1(Cl)C(C)(C)C(Cl)(SSC(C)=O)C1(C)C (centres undefined)  LOX IMVI melanoma    > 100 µM
6          CN1CCN(CC(=O)Nc2cccc3ccccc23)CC1  LOX IMVI melanoma    > 100 µM
7        CN=C(NN)NS(=O)(=O)c1cc(C)c(Cl)cc1S  LOX IMVI melanoma    > 100 µM
8  CCC(C(C)N1CC(=O)NC(=O)C1)N1CC(=O)NC(=O)C1 (centres undefined)  LOX IMVI melanoma    > 100 µM

====

System: SNB-75 CNS
Test: NCI tumour cell line growth inhibition, 48 h
Endpoint Label: TGI (µM)

                                   molecule  endpoint_unit  rel  data_value
0  CNC(=O)C(C)C1C(=O)/C(=C(O)/C=C\C(C)=C\C(C)C2OC3(C)OC(C=CC34CO4)C2C)C(=O)N1C1CCC(O)C(C)O1 (stereo unspecified)             µM    >         100
1  COC1CC(C)(N)C(O)C(C)O1 (stereo unspecified)             µM    >         100
2  COc1cc(OC)cc(C(=O)NC2=C(Cl)C(=O)c3ccccc3C2=O)c1             µM    =        12.3
3        O=C(CON1C(=O)c2ccccc2C1=O)c1ccccc1             µM    >         100
4  CCCCCCNC(=O)Nc1ccc2cc3ccc(NC(=O)NCCCCCC)cc3nc2c1             µM    =        3.16
5                O=C1C=CC(=O)c2ccc(=O)ccc21             µM    =          39

====

Overview of recorded TGI for various compounds
Tested on: MCF7 breast
Assay: NCI tumour cell line growth inhibition, 48 h
Endpoint Label: TGI

                                   compound  test_system  endpoint_label  data_value
0  Cc1c(C(N)=O)sc2c1c(=O)n(Cc1ccccc1)c1nnc(SCC(=O)Nc3ccc(Cl)cc3)n21  MCF7 breast             TGI    > 100 µM
1  O=[N+]([O-])/C(C(Cl)=C(Cl)Cl)=C(\Nc1cccc2ccccc12)Sc1ccccc1  MCF7 breast             TGI       28 µM
2  Cc1ccc2nc(NC(=O)C(=O)C3C(=O)NC(=S)NC3=O)sc2c1  MCF7 breast             TGI    > 100 µM
3                   CC(C)(C)OC(=O)N1CCCC1=O  MCF7 breast             TGI     > 10 µM
4  Cc1ccc(-c2cc(C(=O)N3N=C(c4ccc(N)cc4)CC3c3ccc(Cl)cc3)c3ccccc3n2)cc1 (configuration not stated)  MCF7 breast             TGI    > 100 µM
5  COC(=O)c1cc2c3c(c1)Oc1cc(C(=O)OC)cc4c1C3c1c(cc(C(=O)OC)cc1O4)O2  MCF7 breast             TGI   > 56.3 µM
6  O=C1CC(c2ccccc2Cl)Oc2ccccc21 (configuration not stated)  MCF7 breast             TGI     45.4 µM

====

Test system: ACHN renal
Assay: NCI tumour cell line growth inhibition, 48 h; in the data active means GI50 below about 0.43 µM; inactive means the rest
Outcome codes: active, inactive

>>> df
                                   compound  assigned_class
0  COc1ccc(S(=O)(=O)Nc2cc(/C=C\c3cc(OC)c(OC)c(OC)c3)cc(OC)c2OC)cc1          active
1  CN1CCN(c2ccc3nc(-c4c5cccccc-5[nH]c4=O)[nH]c3c2)CC1        inactive
2  FC(F)(F)c1cccc(Nc2nc3ccccc3nc2Nc2cccc(C(F)(F)F)c2)c1          active
3  Cc1ccc(C2=C(c3ccc(C)cc3)C3(c4ccc(C)cc4)[C@@H](C#N)[C@H](C#N)C2(c2ccc(C)cc2)S3=O)cc1 (some centres not stated)        inactive
4  COc1ccc2nc3cc(Cl)ccc3c(NCCCCCN3CCCCC3)c2c1          active
5  C[C@]12CCC3c4ccc(O)cc4CCC3C1CC[C@@]2(O)C#Cc1ccc(C#C/C=C\C#Cc2ccccc2N)cc1 (some centres not stated)        inactive
6  NC(=O)c1cccc(N2Cc3ccccc3OC3=C2C(=O)c2c(O)ccc(O)c2C3=O)c1          active

====

Tested on: IGROV1 ovarian
Assay: NCI tumour cell line growth inhibition, 48 h; in the data active = GI50 below about 0.43 µM; inactive = the rest
Outcome codes: label 1 for active, label 0 for inactive

Compound	Assigned Class
O=C(Nc1cccc(-c2cccc(F)c2)c1)C1CCN(Cc2cccc3cccnc23)CC1	label 0
O=C1OCC2=C1C(c1cccc(Cl)c1)c1cc3c(cc1N2CCO)OCO3 (configuration not stated)	label 0
C[C@]12CCC3c4ccc(O)cc4CCC3C1CC[C@@]2(O)C#Cc1ccc(C#C/C=C\C#Cc2ccccc2N)cc1 (some centres not stated)	label 0
CN1CCN(c2ccc3nc(-c4c5cccccc-5[nH]c4=O)[nH]c3c2)CC1	label 0
COc1ccc2nc3cc(Cl)ccc3c(NCCCCCN3CCCCC3)c2c1	label 1
C[C@@H](O)[C@H]1C(=O)N2C(C(=O)O)=C(SCCN=CN)C[C@H]12	label 0
CO[C@H](C(=O)[C@@H](O)[C@@H](C)O)[C@@H]1Cc2cc3cc(O[C@H]4C[C@@H](O[C@H]5C[C@@H](O)[C@H](O)C(C)O5)[C@H](O)C(C)(O)O4)cc(O)c3c(O)c2C(=O)[C@H]1O[C@H]1C[C@@H](O[C@H]2C[C@@H](O[C@H]3C[C@@H](OC)[C@H](O)C(C)O3)[C@@H](O)C(C)O2)[C@H](O)C(C)O1 (some centres not stated)	label 0

====

System: HCT-15 colon
Assay: NCI tumour cell line growth inhibition, 48 h
Endpoint Label: TGI

                                   molecule   test_system  data_value
0   Cc1ccc2c(c1)C(=O)c1[nH]c3ccc(F)cc3c1CO2  HCT-15 colon    > 100 µM
1  CN(C(=O)c1ccccc1)C1CCCC(=O)CC1 (configuration not stated)  HCT-15 colon    > 100 µM
2               Cc1noc(C)c1C1=CCCCc2ccccc21  HCT-15 colon    > 100 µM
3  c1ccc([P+](CCN2Cc3ccccc3C2)(c2ccccc2)c2ccccc2)cc1  HCT-15 colon     36.2 µM
4  CC(C)C(=O)N1C(=O)O[C@@H](c2ccccc2)[C@H]1C  HCT-15 colon    > 100 µM
5  COC1CC(C)(N)C(O)C(C)O1 (configuration not stated)  HCT-15 colon    > 100 µM
6  O=[N+]([O-])/C(C(Cl)=C(Cl)Cl)=C(\Nc1cccc2ccccc12)Sc1ccccc1  HCT-15 colon     33.1 µM
